- System: HAP1 MTAP-intact cell line
- assay.text: SDMA in-cell western assay, HAP1 MTAP-intact
- Format: cell-based
- setup.conditions: Homo sapiens, HAP1, SDMA in-cell western, HAP1 MTAP-intact; read-out: MTAP HAP1 intact IC50
observed.property: IC50

Look over these answered cases.
compound	assayed.target	observed.property	result
COc1ncc(NC(=O)C(=O)N2C[C@@H](C)CC[C@@H]2c2ccc(C)nc2)cc1C(N)=O (single isomer, unassigned)	HAP1 MTAP-intact cell line	IC50	> 1000 nM
CCc1cc(NC(=O)C(=O)N2C[C@@H](C)CC[C@@H]2c2ccc3ccc(C4CCN(C)CC4)nc3c2)cnc1N	HAP1 MTAP-intact cell line	IC50	< 100 nM
CCc1cc(NC(=O)C(=O)N2C[C@@H](C)CC[C@@H]2c2ccc3sc(C4CCN(C)CC4)nc3c2)cnc1C	HAP1 MTAP-intact cell line	IC50	100 to 1000 nM
CCc1cc(NC(=O)C(=O)N2C[C@@H](C)CC[C@@H]2c2ccc3sc(CCN4CCOCC4)nc3c2)cnc1N	HAP1 MTAP-intact cell line	IC50	100 to 1000 nM
C[C@@H]1CC[C@@H](c2cc3[nH]ncc3s2)N(C(=O)C(=O)Nc2cncc(C(N)=O)c2)C1 (single isomer, unassigned)	HAP1 MTAP-intact cell line	IC50	> 1000 nM
Cc1cc(NC(=O)C(=O)N2C[C@@H](C)CC[C@@H]2c2ccc(NS(C)(=O)=O)nc2)cnc1N (single isomer, unassigned)	HAP1 MTAP-intact cell line	IC50	> 1000 nM
Cc1cc(NC(=O)C(=O)N2C[C@@H](C)CC[C@@H]2c2cc(F)cc(F)c2)cnc1N (single isomer, unassigned)	HAP1 MTAP-intact cell line	IC50	> 1000 nM
C[C@@H]1CC[C@@H](c2ccc(O)nc2)N(C(=O)C(=O)Nc2cncc(C(N)=O)c2)C1 (single isomer, unassigned)	HAP1 MTAP-intact cell line	IC50	> 1000 nM

Q: IC50 of CCc1cc(NC(=O)C(=O)N2CC(C)CCC2c2ccc3sc(C4CCN(C)CC4C)nc3c2)cnc1N (racemic) [Compound 1227] on HAP1 MTAP-intact cell line?
Result: < 100 nM

Q: Thanks! And Cc1cc(NC(=O)C(=O)N2C[C@H](C)CC[C@H]2c2ccc(S(C)(=O)=O)cc2)cnc1C (racemic) ?
Result: > 1000 nM

Q: Thanks! And NC(=O)c1cncc(NC(=O)C(=O)N2CCCCC2C2CCC2)c1 (stereo not shown) ?
Result: > 1000 nM

Q: Thanks! And C[C@@H]1CC[C@@H](c2ccc(F)c(Cl)c2)N(C(=O)C(=O)Nc2cncc(C(N)=O)c2)C1 (single isomer, unassigned) ?
Result: > 1000 nM

Q: Thanks! And Cc1c(NC(=O)C(=O)N2C[C@H](C)CC[C@H]2c2ccc(O)cc2)cnc(N)c1C (single isomer, unassigned) ?
Result: > 1000 nM
